test: Population pharmacokinetic model of quizartinib (NONMEM v7.5) applied to the external evaluation dataset; format: in vivo, human; settings: human, plasma, oral, popPK estimates, FLT3-ITD negative AML patients, steady state; read-out: V2 Volume of distribution (central compartment), Mean
measured-parameter: Vd (L)
// note: answer is a bare numeric in L

For reference, reported Vd for CC(C)(C)c1cc(NC(=O)Nc2ccc(-c3cn4c(n3)sc3cc(OCCN5CCOCC5)ccc34)cc2)no1 [quizartinib] stands at 219

* * *

assay: Population pharmacokinetic model of quizartinib (NONMEM v7.5) applied to the external evaluation dataset; format: in vivo, human; settings: human, plasma, oral, popPK estimates, FLT3-ITD negative AML patients, steady state; read-out: t1/2 Half-life, Mean (converted)
measured-parameter: half-life (h)
Use h as the unit, but write only the number.

The reported half-life of the molecule CC(C)(C)c1cc(NC(=O)Nc2ccc(-c3cn4c(n3)sc3cc(OCCN5CCOCC5)ccc34)cc2)no1 [quizartinib] was 82.4

* * *

assay: Population pharmacokinetic model of quizartinib (NONMEM v7.5) applied to the external evaluation dataset; format: in vivo, human; details: human, plasma, oral, popPK estimates, median; read-out: bioavailability factor (F1), median
measured-parameter: bioavailability (%)
Answer format: numeric, % implied, no suffix.

Recorded result, CC(C)(C)c1cc(NC(=O)Nc2ccc(-c3cn4c(n3)sc3cc(OCCN5CCOCC5)ccc34)cc2)no1 , bioavailability: 75

* * *

test: Population pharmacokinetic model of quizartinib (NONMEM v7.5) applied to the external evaluation dataset; type: in vivo, human; conditions: human, plasma, oral, popPK estimates, FLT3-ITD negative AML patients, steady state; read-out: F1 Bioavailability, Mean
measured-parameter: bioavailability (%)
Number in %, nothing else.

For reference, reported bioavailability for CC(C)(C)c1cc(NC(=O)Nc2ccc(-c3cn4c(n3)sc3cc(OCCN5CCOCC5)ccc34)cc2)no1 stands at 77

* * *

test: Population pharmacokinetic model of quizartinib (NONMEM v7.5) applied to the external evaluation dataset; assay type: in vivo, human; details: human, plasma, oral, popPK estimates, FLT3-ITD negative AML patients, steady state; read-out: t1/2 Half-life, Median (converted)
measured-parameter: half-life (h)
Express your answer in h, writing the number without its unit.

For this molecule ( CC(C)(C)c1cc(NC(=O)Nc2ccc(-c3cn4c(n3)sc3cc(OCCN5CCOCC5)ccc34)cc2)no1 [quizartinib] ), measured half-life is 82.5

Value source: paper PMC12511262
